# Target Of Assay: PBP1, PBP2 and PBP3 (Neisseria gonorrhoeae, UniProt P08149, H541N)
# Condition Summary: read-out: min. IC50 (minimum observed IC50 value); strain ATCC 19424

- Compound: "CO/N=C(\\C(=O)N[C@@H]1C(=O)N2C(C(=O)O)=C(COC(C)=O)CS[C@H]12)c1csc(N)n1"
  Target Of Assay: "PBP1, PBP2 and PBP3 (Neisseria gonorrhoeae, UniProt P08149, H541N)"
  Units Symbol: "nM"
  IC50: 22
- Compound: "CC(C)(O/N=C(\\C(=O)N[C@@H]1C(=O)N2C(C(=O)[O-])=C(C[n+]3ccccc3)CS[C@H]12)c1csc(N)n1)C(=O)O"
  Target Of Assay: "PBP1, PBP2 and PBP3 (Neisseria gonorrhoeae, UniProt P08149, H541N)"
  Units Symbol: "nM"
  IC50: 18.3
- Compound: "CC1(C)S[C@@H]2[C@H](NC(=O)C(C(=O)O)c3ccccc3)C(=O)N2[C@H]1C(=O)O (stereo partly shown)"
  Target Of Assay: "PBP1, PBP2 and PBP3 (Neisseria gonorrhoeae, UniProt P08149, H541N)"
  Units Symbol: "nM"
  IC50: 344
- Compound: "C=CC1=C(C(=O)O)N2C(=O)[C@@H](NC(=O)/C(=N\\OCC(=O)O)c3csc(N)n3)[C@H]2SC1"
  Target Of Assay: "PBP1, PBP2 and PBP3 (Neisseria gonorrhoeae, UniProt P08149, H541N)"
  Units Symbol: "nM"
  IC50: 22.1
- Compound: "C[C@]1(Cn2ccnn2)[C@H](C(=O)O)N2C(=O)C[C@H]2S1(=O)=O"
  Target Of Assay: "PBP1, PBP2 and PBP3 (Neisseria gonorrhoeae, UniProt P08149, H541N)"
  Units Symbol: "nM"
  IC50: 3560
- Compound: "Cn1c(N)c(NC(=O)NCCN)c[n+]1CC1=C(C(=O)O)N2C(=O)[C@@H](NC(=O)/C(=N\\OC(C)(C)C(=O)[O-])c3nsc(N)n3)[C@H]2SC1"
  Target Of Assay: "PBP1, PBP2 and PBP3 (Neisseria gonorrhoeae, UniProt P08149, H541N)"
  Units Symbol: "nM"
  IC50: 60
- Compound: "CCO/N=C(\\C(=O)N[C@@H]1C(=O)N2C(C(=O)[O-])=C(Sc3nc(-c4cc[n+](C)cc4)cs3)CS[C@H]12)c1nsc(N)n1"
  Target Of Assay: "PBP1, PBP2 and PBP3 (Neisseria gonorrhoeae, UniProt P08149, H541N)"
  Units Symbol: "nM"
  IC50: 248

* * *

# Tested on: N. gonorrhoeae ATCC 19424
# Assay Info: MIC, CLSI broth microdilution
# Format: cell-based
# Condition Summary: Neisseria gonorrhoeae, ATCC19424; strain ATCC 19424; read-out: MIC
Entries and their MIC values follow.

- Molecule: "CC1(C)S[C@@H]2[C@H](NC(=O)C(C(=O)O)c3ccccc3)C(=O)N2[C@H]1C(=O)O (stereo partly drawn)"
  MIC (µg/mL): 0.032
- Molecule: "CO/N=C(\\C(=O)N[C@@H]1C(=O)N2C(C(=O)O)=C(COC(C)=O)CS[C@H]12)c1csc(N)n1"
  MIC (µg/mL): 0.004
- Molecule: "CCO/N=C(\\C(=O)N[C@@H]1C(=O)N2C(C(=O)[O-])=C(Sc3nc(-c4cc[n+](C)cc4)cs3)CS[C@H]12)c1nsc(N)n1"
  MIC (µg/mL): 0.032

Every entry's value here was drawn from paper PMC10269775.
